// provenance: PubChem BioAssay (NCI)

system: SF-539 CNS; assay: NCI tumour cell line growth inhibition, 48 h
measurement.name: GI50

Solved cases (5 shown):
[[record]]
compound = "O=S(=O)(NCCNc1nccc(-c2c(-c3ccc(F)cc3)nc3sccn23)n1)c1ccccc1"
measurement_name = "GI50"
result = "19 µM"

[[record]]
compound = "COc1ccc(C2=CC(c3ccc(OC)c(OC)c3)c3c(c4ccccc4oc3=O)O2)cc1OC (stereo not given)"
measurement_name = "GI50"
result = "1.02 µM"

[[record]]
compound = "CN(/N=N/c1nc(OCc2ccccc2)c2[nH]cnc2n1)C(=O)Oc1ccc([N+](=O)[O-])cc1"
measurement_name = "GI50"
result = "9.88 µM"

[[record]]
compound = "COc1ccc2nc(NC(=O)c3cccnc3Nc3cc(OC)c(OC)c(OC)c3)sc2c1"
measurement_name = "GI50"
result = "2.8 µM"

[[record]]
compound = "O=C1NCCS(=O)(=O)/C1=C\\C=C\\c1cccc(C(F)(F)F)c1"
measurement_name = "GI50"
result = "2.83 µM"


Qu. Record request: GI50 value, item `Cc1cccc2c(N)c3ccccc3nc12`
Ans. 1.09 µM

Qu. Record request: GI50 value, item `Cn1cnc([N+](=O)[O-])c1Sc1ncn[nH]1`
Ans. > 100 µM

Qu. Record request: GI50 value, item `COc1cc(Cl)cc(-c2nn(-c3cccc(NC(=O)Nc4ccc(Cl)c(C(F)(F)F)c4)c3)cc2-c2ccncc2)c1`
Ans. 1.5 µM

Qu. Record request: GI50 value, item `N#Cc1cc(S(=O)(=O)Nc2nc3ccccc3s2)c(SCc2ccccc2)cc1Cl`
Ans. 17.4 µM

Qu. Record request: GI50 value, item `COC(=O)[C@@H](C)C[C@H](Cc1ccccc1)NC(=O)c1csc([C@@H](C[C@H](C(C)C)N(C)C(=O)[C@H](C)NC(=O)[C@H]2CCCCN2C)OC(C)=O)n1`
Ans. 1.42 µM

====

system: SNB-19 CNS; test: NCI tumour cell line growth inhibition, 48 h
measurement.name: TGI

Solved cases (2 shown):
[[record]]
compound = "CCOC(=O)C(=O)C(CCC(=O)c1ccc2ccccc2c1O)C(=O)OCC (stereo unspecified)"
subject_of_test = "SNB-19 CNS"
result = "> 100 µM"

[[record]]
compound = "CSc1cccc(NC(=O)OC2CCCCCCCCCCC2)c1"
subject_of_test = "SNB-19 CNS"
result = "> 100 µM"


Qu. Report TGI for `O=C(O)CCSC(=O)Nc1ccc(N=Nc2ccccc2)cc1` tested on SNB-19 CNS.
Ans. > 100 µM

Qu. Report TGI for `COc1ccc(CCc2nccn2C)cc1OC` tested on SNB-19 CNS.
Ans. > 100 µM

Qu. Report TGI for O=C1C=CC(O)C2C1CC13SSC4(CC5C(=O)C=CC(O)C5N4C1=O)C(=O)N23 (stereo unspecified) tested on SNB-19 CNS.
Ans. 5.19 µM

Qu. Report TGI for `CC1(C)O[C@@H](CBr)C[C@H](C[C@H]2C[C@@H](O)C[C@@H](CCOCc3ccccc3)O2)O1` tested on SNB-19 CNS.
Ans. 61.8 µM

Qu. Report TGI for `ClCc1ccc(Cn2cnc3c(Cl)nc(Cl)nc32)cc1` tested on SNB-19 CNS.
Ans. 7.04 µM

Qu. Report TGI for `Cc1cccc2c(N)c3ccccc3nc12` tested on SNB-19 CNS.
Ans. 16.7 µM

Qu. Report TGI for `C=CCn1c(-c2ccc(-c3cs/c(=N\N=O)n3CC=C)cc2)cs/c1=N\N=O` tested on SNB-19 CNS.
Ans. > 100 µM

Qu. Report TGI for `CCOC(=O)C1=C(Nc2ccc(Cl)c(Cl)c2)OC/C1=N\NS(=O)(=O)c1ccc(C)cc1` tested on SNB-19 CNS.
Ans. > 100 µM

Qu. Report TGI for `Nc1n[nH]c(CCc2nc(N)n[nH]2)n1` tested on SNB-19 CNS.
Ans. > 100 µM

Qu. Report TGI for CC1=NN(C(=O)CC(=O)Nc2cccc(Cl)c2)C(=O)C1N=Nc1ccc(C(=O)O)cc1 (stereo unspecified) tested on SNB-19 CNS.
Ans. > 100 µM

Qu. Report TGI for CC(Br)C(=O)Nc1ccc(C(=O)O)c(O)c1 (stereo unspecified) tested on SNB-19 CNS.
Ans. > 100 µM
